Data provenance: ChEMBL document CHEMBL3867488

Measured Efficacy, listed per entry for reference.
biological target: Oxysterols receptor LXR-beta (Homo sapiens); assay: Agonist activity at LXR-beta in human HeLa cells assessed as induction of ABCA1 by beta-galactosidase/luciferase reporter gene assay relative to control; format: cell-based
reported-metric: Efficacy (%)

{"compound": "CC(C)(O)c1cn(-c2ccc(-c3cc(F)c(CO)c(S(C)(=O)=O)c3)cc2)c(C(C)(C)c2ccccc2F)n1", "reported-metric": "Efficacy", "reading-unit": "%", "result-number": 15}
{"compound": "CC(C)(O)c1cn(-c2ccc(-c3cc(F)c(CO)c(S(C)(=O)=O)c3)cc2F)c(C(C)(C)c2c(Cl)cccc2Cl)n1 [BMS-852927]", "reported-metric": "Efficacy", "reading-unit": "%", "result-number": 29}
{"compound": "CC(C)(O)c1cn(-c2ccc(-c3cc(F)c(CO)c(S(C)(=O)=O)c3)cc2)c(C(C)(C)c2ccccc2Cl)n1", "reported-metric": "Efficacy", "reading-unit": "%", "result-number": 43}
{"compound": "CC(C)(O)c1cn(-c2ccc(-c3ccc(CO)c(S(C)(=O)=O)c3)cc2)c(C(C)(C)c2ccccc2Cl)n1", "reported-metric": "Efficacy", "reading-unit": "%", "result-number": 56}
{"compound": "CC(C)(O)c1cn(-c2ccc(-c3cccc(S(C)(=O)=O)c3)cc2)c(C(C)(C)c2c(Cl)cccc2Cl)n1", "reported-metric": "Efficacy", "reading-unit": "%", "result-number": 42}
{"compound": "CC(C)(O)c1cn(-c2ccc(-c3cc(F)c(CO)c(S(C)(=O)=O)c3)cc2)c(C(C)(C)c2c(Cl)cccc2Cl)n1", "reported-metric": "Efficacy", "reading-unit": "%", "result-number": 23}
{"compound": "CC(C)(O)c1cn(-c2ccc(-c3cc(F)c(CO)c(S(C)(=O)=O)c3)cc2Cl)c(C(C)(C)c2c(Cl)cccc2Cl)n1", "reported-metric": "Efficacy", "reading-unit": "%", "result-number": 12}
{"compound": "CC(O)c1ccc(-c2ccc(-n3cc(C(C)(C)O)nc3C(C)(C)c3ccccc3Cl)cc2)cc1S(C)(=O)=O (stereo unspecified)", "reported-metric": "Efficacy", "reading-unit": "%", "result-number": 68}
{"compound": "CC(c1c(Cl)cccc1Cl)c1nc(C(C)(C)O)cn1-c1ccc(-c2cc(F)c(CO)c(S(C)(=O)=O)c2)cc1F (stereo unspecified)", "reported-metric": "Efficacy", "reading-unit": "%", "result-number": 9}
{"compound": "CC(C)(O)c1cn(-c2ccc(-c3cccc(S(C)(=O)=O)c3)cc2)c(C(C)(C)c2ccccc2Cl)n1 [BMS-779788]", "reported-metric": "Efficacy", "reading-unit": "%", "result-number": 50}
{"compound": "CC(C)(O)c1cn(-c2ccc(-c3cc(F)c(CO)c(S(C)(=O)=O)c3)cc2)c(C(C)(C)c2cccc(F)c2Cl)n1", "reported-metric": "Efficacy", "reading-unit": "%", "result-number": 16}
